These measurements were taken from PubChem BioAssay (NCI).

# Test system: MDA-MB-231 breast
# ASSAY_DETAILS: NCI tumour cell line growth inhibition, 48 h
READOUT_LABEL: TGI

*Q* Item under review: NCCCN1CCN(CC(=O)O)CCN(CCCN)CCN(CC(=O)O)CC1 . Reported TGI?
*A* > 100 µM

*Q* // query TGI value for entry NCCNC(=S)S
*A* > 100 µM

*Q* Please look up its TGI: CCOC(=O)NC(NC(C)CC)(C(F)(F)F)C(F)(F)F (stereo not drawn)
*A* > 100 µM

----------
# Tested on: SW-620 colon
# ASSAY_DETAILS: NCI tumour cell line growth inhibition, 48 h
READOUT_LABEL: TGI

*Q* Look up TGI for this compound: Cc1n[nH]c(=O)n1/N=C/c1c[nH]c2ccccc12
*A* > 100 µM

*Q* Name the reported TGI value associated with the compound Nc1c(C(=O)Nc2ccccc2Cl)sc2nc3c(cc12)CCCCCC3
*A* > 100 µM

*Q* What TGI value was documented for this compound, COc1ccc(/C=C/C(=O)N[C@@H]2C(=O)N3[C@@H]2SC(C)(C)[C@@H]3C(=O)O)cc1 ?
*A* > 100 µM

*Q* Given O=C(/C=C/c1ccco1)CC(=O)/C=C/c1ccco1 , state its recorded TGI.
*A* 17.1 µM

*Q* Dear colleague, I am looking for the recorded TGI of the following compound: O=C1CCC2(CC1)SCCCS2
*A* > 100 µM

*Q* Fill blank: measured TGI of the compound Cc1nc(NC(=O)CCCN2C(=O)c3cccc4cccc(c34)C2=O)sc1C(=O)Nc1cc(C(=O)NCCCN(C)C)n(C)c1 is ____.
*A* > 100 µM

*Q* Data request, read-out TGI, for COc1ccc(N2C(=O)C3c4[nH]c5cccc(C)c5c4C4CCC(C(C)(C)C)CC4C3C2=O)cc1 (centres undefined)
*A* > 10 µM

*Q* Query: TGI; subject: NC1=NNC2(C(N)=N1)c1ccccc1-c1ccccc12
*A* > 10 µM

*Q* What measured TGI goes with Cc1ccc(S(=O)(=O)N2CCc3ccc(O)c4c3C2Cc2cc(Cl)ccc2-4)cc1 (centres undefined) ?
*A* 9.35 µM

*Q* Find the recorded TGI belonging to CS(=O)(=O)Nc1ccc(Nc2c3ccccc3nc3ccccc23)cc1 and report it.
*A* 19.9 µM

*Q* Look up TGI: COC(=O)C1(Cc2ccccc2)Cc2ccc3c(c2C1=O)CCC3 (centres undefined)
*A* > 100 µM

*Q* What value of TGI has been recorded for this entry: c1ccc(/N=N/Nc2ccc(-c3nc4ccccc4[nH]3)cc2)nc1
*A* 71.5 µM

*Q* TGI lookup needed for COC1=CC(c2ccc[nH]2)=N/C1=C\c1[nH]c(C)c(C(=O)CCCCC(=O)Nc2ccccc2)c1C , thanks.
*A* 2.34 µM

*Q* Reported TGI for COc1ccc(C(c2c(O)c3ccccc3n(C)c2=O)c2c(O)c3ccccc3n(C)c2=O)cc1 : what is it?
*A* > 100 µM
